Molecular target: T1, recombinant hCD127 (Sino Biologicals, reference 10975-H08H) (human, UniProt P16871 21-239)
T1 construct: Bought recombinant protein; In the Blitz assay the protein is said to be captured by an Fc fragment, and a second catalogue number (11612-H08H) is printed; also called human CD127 recombinant protein; recombinant human CD127
T1 chain: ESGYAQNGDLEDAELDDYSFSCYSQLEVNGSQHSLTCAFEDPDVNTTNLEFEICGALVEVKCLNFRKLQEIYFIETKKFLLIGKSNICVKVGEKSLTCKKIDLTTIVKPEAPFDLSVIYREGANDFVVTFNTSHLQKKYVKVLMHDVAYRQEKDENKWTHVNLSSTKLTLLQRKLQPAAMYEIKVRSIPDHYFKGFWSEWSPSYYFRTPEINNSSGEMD
Assay: Blitz (BLI), hCD127 captured on anti-human IgG Fc (AHC) biosensor, antibody at 20 µg/mL
RECORDED_METRIC: koff (s⁻¹)
One number for each entry, in s⁻¹.

Illustrative cases are given below, each with its answer.
N13B2-hVL6 (antibody, V domains shown, also called N13B2-h3VL6; N13B2-VL6-V48L-F87Y) VH: QVQLVESGGGLVKPGGSLRLSCAVSGFTLSDYYMAWIRQAPGKGLEWVSTISASGLRTYYPDSVKGRFTISRDNAKNSLYLQMNSLRAEDTAVYYCARPLSAHYGFNYFDYWGQGTLVTVSS VL: DIQMTQSPSSLSASVGDRVTITCRTSEDIYQGLAWYQQKPGKAPKLLLYSANTLHIGVPSRFSGSGSGTDYTLTISSLQPEDFATYYCQQYYDYPLAFGGGTKVEIKR: 0.00266
N13B2-h3 (antibody, V domains shown, also called humanized N13B2 of WO 2015/189302) VH: QVQLVESGGGLVKPGGSLRLSCAVSGFTLSDYYMAWIRQAPGKGLEWVSTISASGLRTYYPDSVKGRFTISRDNAKNSLYLQMNSLRAEDTAVYYCARPLSAHYGFNYFDYWGQGTLVTVSS VL: EIVMTQSPATLSVSPGERATLSCRTSEDIYQGLAWYQQKPGQAPRLLIYSANTLHIGIPARFSGSGSGTEFTLTISSLQSEDFAVYYCQQYYDYPLAFGGGTKVEIKR: 0.00267
N13B2-hVL4 (antibody, V domains shown, also called N13B2-VL4-V48L) VH: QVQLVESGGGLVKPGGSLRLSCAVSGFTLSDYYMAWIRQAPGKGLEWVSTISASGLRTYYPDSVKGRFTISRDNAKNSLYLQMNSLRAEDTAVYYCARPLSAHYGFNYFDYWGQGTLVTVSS VL: DIQMTQSPSSLSASVGDRVTITCRTSEDIYQGLAWYQQKPGKAPKLLLYSANTLHIGVPSRFSGSGSGTDYTLTISSLQPEDFATYFCQQYYDYPLAFGGGTKVEIKR: 0.00281

State the recorded koff for this entry: N13B2-hVL5 (antibody, V domains shown, also called N13B2-VL5-F87Y) VH: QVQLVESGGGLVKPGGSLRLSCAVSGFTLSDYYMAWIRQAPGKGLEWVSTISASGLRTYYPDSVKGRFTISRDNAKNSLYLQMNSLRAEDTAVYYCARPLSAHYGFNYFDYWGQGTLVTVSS VL: DIQMTQSPSSLSASVGDRVTITCRTSEDIYQGLAWYQQKPGKAPKLLVYSANTLHIGVPSRFSGSGSGTDYTLTISSLQPEDFATYYCQQYYDYPLAFGGGTKVEIKR 0.00266
